Test system: SK-MEL-2 melanoma
Assay comment: NCI tumour cell line growth inhibition, 48 h
Where TGI equals or exceeds 10 µM, the correct label is Criterion met; where it does not, the label is Criterion not met.

Here are 4 compounds together with their reported answers.
CCN(CC)CCOc1ccc(Nc2ncc3cc(-c4ccc(O)c(C#N)c4)c(=O)n(C)c3n2)cc1 ... Criterion met
COc1cccc(-c2nn(-c3ccccc3)cc2-c2ccnc(NCCCNC(=O)Nc3ccc(F)cc3)c2)c1 ... Criterion met
COc1ccc(/C=C/c2nc3ccccc3n3c(-c4cccc([N+](=O)[O-])c4)nnc23)cc1 ... Criterion not met
CN1CCN(Cc2ccc(C(=O)Nc3cccc(Nc4ccc5cc(O)ccc5n4)c3)cc2C(F)(F)F)CC1 ... Criterion met

Okay, next one:
I'd appreciate it if you could say whether `Cn1cc(-c2cc3nc(-c4cn(C)c5ncccc45)cc(N)n3n2)c2ccccc21` has TGI at least equal to 10 µM.
Criterion not met

----------
Exercise: state measured GI50 for each of the compounds provided.
Tested on: EKVX NSCLC
Assay comment: NCI tumour cell line growth inhibition, 48 h

Provide GI50 for all items below, preserving their order.
1. CN1CCN(Cc2ccc(C(=O)Nc3cccc(Nc4ccc5cc(O)ccc5n4)c3)cc2C(F)(F)F)CC1
2. Cn1cc(-c2cc3nc(-c4cn(C)c5ncccc45)cc(N)n3n2)c2ccccc21
3. CCN(CC)CCOc1ccc(Nc2ncc3cc(-c4ccc(O)c(C#N)c4)c(=O)n(C)c3n2)cc1
4. COc1ccc(/C=C/c2nc3ccccc3n3c(-c4cccc([N+](=O)[O-])c4)nnc23)cc1

1. 14.2 µM
2. 10.7 µM
3. > 100 µM
4. 3.86 µM

----------
Tested on: MDA-MB-468 breast
Assay comment: NCI tumour cell line growth inhibition, 48 h; in the data active = GI50 below about 0.43 µM; inactive = the rest
Write down the outcome that applies. Available outcomes: 1 (active), -1 (inactive)

CN1CCN(Cc2ccc(C(=O)Nc3cccc(Nc4ccc5cc(O)ccc5n4)c3)cc2C(F)(F)F)CC1 ... -1
Cc1c[nH]c(=O)n(Cc2nnc(CCC(=O)c3nc4ccccc4[nH]3)o2)c1=O ... 1

Okay, next one:
// return assay outcome for `CCc1cccc(NC(=O)Nc2ccc(Oc3ccc4nc(NC(=O)OC)[nH]c4c3)cc2)c1`
1

----------
Tested on: MDA-MB-468 breast
Assay comment: NCI tumour cell line growth inhibition, 48 h
Reported endpoint: TGI (nM)
One number for each entry, in nM.

O=C(Nc1n[nH]c2nc(-c3ccc(O)cc3)c(Br)cc12)C1CC1 ... 8790

Provide TGI for all items below, preserving their order.
1. Cc1c[nH]c(=O)n(Cc2nnc(CCC(=O)c3nc4ccccc4[nH]3)o2)c1=O
2. COc1cc2c(cc1O)c(=O)n(CCN(C)C)c1c3cc4c(cc3ncc21)OCO4

[553, 14]

----------
Exercise: state measured TGI for each of the compounds provided.
Test system: MDA-MB-468 breast
Assay comment: NCI tumour cell line growth inhibition, 48 h
Numbers only, in µM.

Here's what some known entries look like.
O=C1/C(=C/c2ccc(F)cc2)CN(C(=O)C(Cl)Cl)C/C1=C\c1ccc(F)cc1 ... 0.48
COC(=O)C1=C(C(=O)ON)[C@@H]2C=C[C@@]1([C@@H](Cc1ccccc1)Nc1ccccc1)O2 ... 2.97
CC1=C2[C@@H](CC1)[C@]1(C)O[C@@](C(C)C)(C[C@H]1OC(=O)CO)[C@H]2OC(=O)CCCc1ccccc1 ... 26.3

Now consider a different compound.
Any idea what its TGI is? The compound is `O=c1oc2ccc(Cl)cc2c(=O)n1-c1ccc(F)cc1F`
5.71
